# test.target: MUP20 mutant L88Q (Mus musculus, UniProt Q5FW60, L88Q)
# Construct: 6xHis (N)
# assay: Isothermal titration calorimetry, MUP20 L88Q
# test.conditions: one-site binding model, 25 °C, 50 mM Tris HCl pH 7.4; read-out: Equilibrium dissociation constant Kd (ITC), L88Q
Assign pKd to each entry below.
Answers are plain numbers, as −log10 of the molar value.

CC1=CC(=O)c2ccccc2C1=O [MEN, methylnapthalene-1,4-dione]
4.89

Now for another entry.
// pKd value for COc1nccnc1CC(C)C [PYR, 2-isobutyl-3-methoxypyrazine] : 5.62

====

# test.target: MUP20L88Q (Mus musculus, UniProt Q5FW60, L88Q)
# Construct: 6xHis (N); made in house; host or cells: E. coli BL21(DE3), pET5b
# assay: Fluorescence competitive binding assay with 1-NPN, MUP20 L88Q
# test.conditions: Measured Kd, L88Q, 1-NPN displacement, 50 mM Tris-HCl pH 7.4, 25 °C
endpoint: pKd
Answers are plain numbers, as −log10 of the molar value.

molecule Cc1ccc(O)c(C)c1 [2,4-DMP, 2,4-dimethylphenol] , pKd observed: 5.29

====

Exercise: for every item that follows, state its recorded pKd.
# test.target: MUP20N107L (Mus musculus, UniProt Q5FW60, N107L)
# Construct: 6xHis (N); made in house; host or cells: E. coli BL21(DE3), pET5b
# assay: Fluorescence competitive binding assay with 1-NPN, MUP20 N107L
# test.conditions: 1-NPN displacement, 50 mM Tris-HCl pH 7.4, 25 °C; read-out: Measured Kd, N107L
Give bare numbers, as −log10 of the molar value.

A selection of reference data follows.
CC1=CC(=O)c2ccccc2C1=O [MEN, methylnapthalene-1,4-dione]
5.91
CCCCCCC(CO)CCCC (stereo not shown) [OCT, 2-butyl-1-octanol]
5.57

Hey, can you go through the list below and give me pKd for every item?
1. COc1nccnc1CC(C)C [PYR, 2-isobutyl-3-methoxypyrazine]
2. C=CC(C)(O)CCC=C(C)C (stereo not shown) [LIN, 3,7-dimethylocta-1,6-dien-3-ol]

Response line:
1: 5.85; 2: 5.86

====

# test.target: MUP20V59T (Mus musculus, UniProt Q5FW60, V59T)
# Construct: 6xHis (N); made in house; host or cells: E. coli BL21(DE3), pET5b
# Sequence (Q5FW60 20-181 V59T): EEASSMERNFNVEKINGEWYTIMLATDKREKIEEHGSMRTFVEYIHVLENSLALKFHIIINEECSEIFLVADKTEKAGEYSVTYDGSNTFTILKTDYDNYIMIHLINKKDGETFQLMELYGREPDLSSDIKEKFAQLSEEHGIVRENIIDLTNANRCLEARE
# assay: Fluorescence competitive binding assay with 1-NPN, MUP20 V59T
# test.conditions: 1-NPN displacement, 50 mM Tris-HCl pH 7.4, 25 °C; read-out: Measured Kd, V59T
endpoint: Kd (µM)
Answers are plain numbers, in µM.

Examples from the recorded data:
CCCCCCC(CO)CCCC (stereo not shown) [OCT, 2-butyl-1-octanol]
1.54
CC1=CC(=O)c2ccccc2C1=O [MEN, methylnapthalene-1,4-dione]
1.85
COc1nccnc1CC(C)C [PYR, 2-isobutyl-3-methoxypyrazine]
1.93

For record C=CC(C)(O)CCC=C(C)C (stereo not shown) [LIN, 3,7-dimethylocta-1,6-dien-3-ol] the listed Kd is 1.6

====

Provide the reported Kd of each item.
# test.target: MUP20 mutant L124V (Mus musculus, UniProt Q5FW60, L124V)
# Construct: 6xHis (N); made in house; host or cells: E. coli BL21(DE3), pET5b
# assay: Isothermal titration calorimetry, MUP20 L124V
# Format: binding
# test.conditions: one-site binding model, 25 °C, 50 mM Tris HCl pH 7.4; read-out: Equilibrium dissociation constant Kd (ITC), L124V
One number for each entry, in µM.

CC1=CC(=O)c2ccccc2C1=O
1900

Consider the additional compound presented here.
Kd reported for this compound COc1nccnc1CC(C)C : 2100

====

# test.target: MUP20N107L (Mus musculus, UniProt Q5FW60, N107L)
# Construct: 6xHis (N); made in house; host or cells: E. coli BL21(DE3), pET5b
# assay: Fluorescence competitive binding assay with 1-NPN, MUP20 N107L
# Method: Fluorescence competitive binding assays: Fluorescence-competitive binding assays were carried out using the fluorescent probe N-phenyl-1-naphthylamine (1-NPN), as described[39],[40]. A binding curve was constructed and the dissociation constant of the probe (KD) was calculated. The binding analyses assumed that the protein had 100% activity and that the stoichiometry of binding was 1:1 at saturation. The affinity of various volatile ligands was measured in competitive binding assays. […]
endpoint: pKd
One number for each entry, as −log10 of the molar value.

Noted for Cc1ccc(O)c(C)c1 : its pKd reads 5.70

====

# test.target: MUP20L124V (Mus musculus, UniProt Q5FW60, L124V)
# Construct: 6xHis (N); made in house; host or cells: E. coli BL21(DE3), pET5b
# Sequence (Q5FW60 20-181 L124V): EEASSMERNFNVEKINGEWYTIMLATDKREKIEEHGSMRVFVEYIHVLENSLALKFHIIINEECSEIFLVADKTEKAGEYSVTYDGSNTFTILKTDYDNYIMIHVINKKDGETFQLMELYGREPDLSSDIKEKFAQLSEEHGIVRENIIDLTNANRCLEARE
# assay: Fluorescence competitive binding assay with 1-NPN, MUP20 L124V
endpoint: Kd (nM)
Answers are plain numbers, in nM.

Record Cc1ccc(O)c(C)c1 , field Kd: 1300

====

# test.target: MUP20L88Q (Mus musculus, UniProt Q5FW60, L88Q)
# Construct: 6xHis (N); made in house; host or cells: E. coli BL21(DE3), pET5b
# assay: Fluorescence competitive binding assay with 1-NPN, MUP20 L88Q
# test.conditions: 1-NPN displacement, 50 mM Tris-HCl pH 7.4, 25 °C; read-out: Measured Kd, L88Q
endpoint: pKd
One number for each entry, as −log10 of the molar value.

C=CC(C)(O)CCC=C(C)C (centres unmarked)
5.66

Read the next record carefully.
Entry under test: CCCCCCC(CO)CCCC (centres unmarked) . Its pKd was 5.84

====

# test.target: MUP20Y103D (Mus musculus, UniProt Q5FW60, Y103D)
# Construct: 6xHis (N); made in house; host or cells: E. coli BL21(DE3), pET5b
# Sequence (Q5FW60 20-181 Y103D): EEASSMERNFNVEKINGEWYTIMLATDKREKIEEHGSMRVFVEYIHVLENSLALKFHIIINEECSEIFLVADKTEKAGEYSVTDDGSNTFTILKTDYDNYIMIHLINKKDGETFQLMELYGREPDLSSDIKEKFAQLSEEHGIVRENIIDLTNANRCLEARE
# assay: Fluorescence competitive binding assay with 1-NPN, MUP20 Y103D
endpoint: Kd
Mention the unit after the number when you answer.

Briefly, Kd measured for Cc1ccc(O)c(C)c1 : 4.68 µM

====

# test.target: wild type MUP20 (Mus musculus, UniProt Q5FW60)
# Construct: 6xHis (N); made in house; host or cells: E. coli BL21(DE3), pET5b
# assay: Fluorescence competitive binding assay with 1-NPN, wild type MUP20
# test.conditions: 1-NPN displacement, 50 mM Tris-HCl pH 7.4, 25 °C; read-out: Measured Kd, WT
# Protocol: Fluorescence competitive binding assays: Fluorescence-competitive binding assays were carried out using the fluorescent probe N-phenyl-1-naphthylamine (1-NPN), as described[39],[40]. A binding curve was constructed and the dissociation constant of the probe (KD) was calculated. The binding analyses assumed that the protein had 100% activity and that the stoichiometry of binding was 1:1 at saturation. The affinity of various volatile ligands was measured in competitive binding assays. […]
Record form. Attribute: pKd. Fill in for each entry.
Answers are plain numbers, as −log10 of the molar value.

C=CC(C)(O)CCC=C(C)C (centres unmarked)
5.55

Lab note: next compound to report on.
Just so you know, measured pKd for CCCCCCC(CO)CCCC (centres unmarked) came out at 6.11

====

# test.target: MUP20V59T (Mus musculus, UniProt Q5FW60, V59T)
# Construct: 6xHis (N); made in house; host or cells: E. coli BL21(DE3), pET5b
# assay: Fluorescence competitive binding assay with 1-NPN, MUP20 V59T
endpoint: pKd
Give bare numbers, as −log10 of the molar value.

Reported pKd for Cc1ccc(O)c(C)c1 [2,4-DMP, 2,4-dimethylphenol] was 5.84

====

# test.target: wild type MUP20 (Mus musculus)
# Construct: 6xHis (N); made in house; host or cells: E. coli BL21(DE3), pET5b
# assay: Fluorescence competitive binding assay with 1-NPN, wild type MUP20
# test.conditions: Measured Kd, WT, 1-NPN displacement, 50 mM Tris-HCl pH 7.4, 25 °C
endpoint: Kd (µM)
Answers are plain numbers, in µM.

Reported Kd of Cc1ccc(O)c(C)c1 : 4.24
